meta.source: paper PMC5164944

- System: CYP2D6 mRNA
- ASSAY COMMENT: CYP2D6 mRNA in plated human hepatocytes
- RECORDED CONDITIONS: three donors, 72 hours
# Lookup of reported mean CYP2D6 mRNA levels, % of vehicle treated cells keyed by entry
Give your result in % as a bare value.

C[C@H](NC(C)(C)C)[C@@H](O)c1cccc(Cl)c1 [Threo-hydrobupropion, threohydrobupropion]	18
C[C@H]1NC(C)(C)CO[C@]1(O)c1cccc(Cl)c1 [R,R-OH-bupropion]	28
CC(NC(C)(C)C)C(O)c1cccc(Cl)c1 (stereo not drawn) [Erythro-hydrobupropion, erythrohydrobupropion]	20

Let us move to another entry and its mean CYP2D6 mRNA levels, % of vehicle treated cells.
Q) Give mean CYP2D6 mRNA levels, % of vehicle treated cells for the following compound: C[C@@H]1NC(C)(C)CO[C@@]1(O)c1cccc(Cl)c1 [S,S-OH-bupropion]
A) 26

* * *

# Lookup of reported % decrease in CYP2D6 mRNA at 72 hrs keyed by entry
- Tested on: CYP2D6 mRNA
- ASSAY COMMENT: CYP2D6 mRNA in plated human hepatocytes
Give your result in % as a bare value.

Recorded % decrease in CYP2D6 mRNA at 72 hrs, per entry:
CC(NC(C)(C)C)C(O)c1cccc(Cl)c1 (stereo not drawn) [Erythro-hydrobupropion, erythrohydrobupropion]	80
C[C@H]1NC(C)(C)CO[C@]1(O)c1cccc(Cl)c1	72
C[C@@H]1NC(C)(C)CO[C@@]1(O)c1cccc(Cl)c1	74

Let us move to another entry and its % decrease in CYP2D6 mRNA at 72 hrs.
Q) Give % decrease in CYP2D6 mRNA at 72 hrs for the following compound: C[C@H](NC(C)(C)C)[C@@H](O)c1cccc(Cl)c1 [Threo-hydrobupropion, threohydrobupropion]
A) 82

* * *

# Lookup of reported fu,p (S.D. n=3) keyed by entry
- ASSAY COMMENT: Plasma protein binding by ultracentrifugation
- Assay type: in vitro ADME, human
- RECORDED CONDITIONS: unbound fraction in plasma
Hey, just send me the number, nothing else.

Recorded fu,p (S.D. n=3), per entry:
C[C@H](NC(C)(C)C)C(=O)c1cccc(Cl)c1 [S-Bupropion, S-bupropion, reference compound]	0.6
C[C@@H]1NC(C)(C)CO[C@@]1(O)c1cccc(Cl)c1 [S,S-OH-bupropion]	0.5
CC(NC(C)(C)C)C(O)c1cccc(Cl)c1 (stereo not drawn) [Erythro-hydrobupropion, erythrohydrobupropion]	0.7
C[C@@H](NC(C)(C)C)C(=O)c1cccc(Cl)c1 [R-Bupropion, R-bupropion, reference compound]	0.5
C[C@H](NC(C)(C)C)[C@@H](O)c1cccc(Cl)c1 [Threo-hydrobupropion, threohydrobupropion]	1.0

Q) Give fu,p (S.D. n=3) for the following compound: C[C@H]1NC(C)(C)CO[C@]1(O)c1cccc(Cl)c1 [R,R-OH-bupropion]
A) 0.5
